# System: Hepatotoxicity
# EXPERIMENT DESCRIPTION: FDA HLAED, lactate dehydrogenase (LDH) increase
# CONDITION PARAMETERS: human
ASSAY READOUT: LDH Increase - Number of Reports

Brc1c(NC2=NCCN2)ccc2nccnc12 = < 4
Clc1ccc2nsnc2c1NC1=NCCN1 = < 4
Cc1cccc(Nc2ccncc2S(=O)(=O)NC(=O)NC(C)C)c1 [TORSEMIDE] = < 4
Nc1nc(Cl)nc2c1ncn2[C@H]1C[C@H](O)[C@@H](CO)O1 = < 4
COc1ccc2cc(CCC(C)=O)ccc2c1 = >= 4
Nc1ccn([C@@H]2O[C@H](CO)[C@@H](O)C2(F)F)c(=O)n1 = < 4
CN(Cc1ccc(C(C)(C)C)cc1)Cc1cccc2ccccc12 = < 4
CC(C)(C)NC(=O)[C@H]1CC[C@H]2[C@@H]3CC[C@H]4NC(=O)C=C[C@]4(C)[C@H]3CC[C@]12C [FINASTERIDE] = >= 4

Need LDH Increase - Number of Reports of `Cc1nc2n(c(=O)c1CCN1CCC(c3noc4cc(F)ccc34)CC1)CCCC2` , thanks.
>= 4

Could you tell me which LDH Increase - Number of Reports is on file for CCOC(=O)C1=C(COCCN)NC(C)=C(C(=O)OC)C1c1ccccc1Cl (stereo not drawn) ?
>= 4

For the compound `CC[C@H](C)C(=O)O[C@H]1C[C@H](O)C=C2C=C[C@H](C)[C@H](CC[C@@H](O)C[C@@H](O)CC(=O)O)[C@H]21` , what LDH Increase - Number of Reports is on record?
>= 4

# lookup: LDH Increase - Number of Reports of `O=C1CN=C(c2ccccc2)c2cc(Cl)ccc2N1CC(F)(F)F`
< 4

---

# Test system: Hepatotoxicity
# EXPERIMENT DESCRIPTION: FDA HLAED, serum glutamic pyruvic transaminase (SGPT) increase
# CONDITION PARAMETERS: human
ASSAY READOUT: SGPT Increase - Activity Score

Example results:
NCCCNCCSP(=O)(O)O [AMIFOSTINE] = Inactive
Cc1nc2n(c(=O)c1CCN1CCC(c3noc4cc(F)ccc34)CC1)CCCC2 [RISPERIDONE] = Active
Nc1ccn([C@@H]2O[C@H](CO)[C@@H](O)[C@@H]2O)c(=O)n1 [CYTARABINE] = Active
CC(N)C12CC3CC(CC(C3)C1)C2 (stereo unspecified) [RIMANTADINE] = Inactive

// returns reported SGPT Increase - Activity Score for input N=C(N)N/N=C/c1c(Cl)cccc1Cl [GUANABENZ]
Inactive

---

# Tested on: Hepatotoxicity
# EXPERIMENT DESCRIPTION: FDA HLAED, gamma-glutamyl transferase (GGT) increase
# CONDITION PARAMETERS: human
Below, each of the molecules is paired with its reported GGT Increase - Index Value value.
Hey, just send me the number, nothing else.

Fill in the blank: the reported GGT Increase - Index Value of NCCC(O)(P(=O)(O)O)P(=O)(O)O [PAMIDRONIC ACID] is ____.
12.4

What value of GGT Increase - Index Value has been recorded for this entry: C[C@@H]1C[C@H]2[C@@H]3CCC4=CC(=O)C=C[C@]4(C)[C@@]3(Cl)[C@@H](O)C[C@]2(C)[C@@]1(O)C(=O)CCl [MOMETASONE]
0

---

# System: Hepatotoxicity
# EXPERIMENT DESCRIPTION: FDA HLAED, serum glutamic pyruvic transaminase (SGPT) increase
# CONDITION PARAMETERS: human
ASSAY READOUT: SGPT Increase - Number of Reports

CO/N=C(\C(=O)N[C@@H]1C(=O)N2C(C(=O)[O-])=C(C[N+]3(C)CCCC3)CS[C@H]12)c1csc(N)n1 = >= 4
COc1cc2nc(N3CCN(C(=O)C4CCCO4)CC3)nc(N)c2cc1OC (centres undefined) = >= 4
O=[N+]([O-])O[C@@H]1CO[C@H]2[C@@H]1OC[C@@H]2O [ISOSORBIDE MONONITRATE] = < 4
CCCN1CCCC[C@H]1C(=O)Nc1c(C)cccc1C = < 4

---

# System: Hepatotoxicity
# EXPERIMENT DESCRIPTION: FDA HLAED, serum glutamic pyruvic transaminase (SGPT) increase
# CONDITION PARAMETERS: human
ASSAY READOUT: SGPT Increase - Number of Reports

Look over these answered cases.
COCCCC/C(=N\OCCN)c1ccc(C(F)(F)F)cc1 = >= 4
CC(=O)N[C@@H](CS)C(=O)O = >= 4
Nc1ccc(O)c(C(=O)O)c1 = >= 4
Clc1ccc(CO/N=C(\Cn2ccnc2)c2ccc(Cl)cc2Cl)c(Cl)c1 = < 4
CCCNCC(O)COc1ccccc1C(=O)CCc1ccccc1 (stereo not given) = >= 4
Nc1nc(O)c2ncn(COC(CO)CO)c2n1 = >= 4

Tell me the measured SGPT Increase - Number of Reports of `Cc1nc2n(c(=O)c1CCN1CCC(c3noc4cc(F)ccc34)CC1)CCCC2` , please.
>= 4

Returns the measured SGPT Increase - Number of Reports for the input compound. Input: Cc1ccc(C(=O)Oc2ccc(C(O)CNC(C)(C)C)cc2OC(=O)c2ccc(C)cc2)cc1 (stereo not given)
< 4

Look up SGPT Increase - Number of Reports for this compound: `Nc1ccn(C[C@@H](CO)OCP(=O)(O)O)c(=O)n1.O.O`
< 4

Can you look up the measured SGPT Increase - Number of Reports of CC(CCc1ccc(O)cc1)NCCc1ccc(O)c(O)c1 (stereo not given) for me?
< 4

---

Listed below: Alkaline Phosphatase Increase - Index Value values for each entry.
# System: Hepatotoxicity
# EXPERIMENT DESCRIPTION: FDA HLAED, alkaline phosphatase increase
# CONDITION PARAMETERS: human
Respond numerically, and do not add a unit to the figure.

I would be grateful if you could share the reported Alkaline Phosphatase Increase - Index Value for CN1C2CCCC1CC(NC(=O)c1nn(C)c3ccccc13)C2 (centres undefined) .
1

What does the data say about its Alkaline Phosphatase Increase - Index Value? Entry: `O=C(O)c1cc(/N=N/c2ccc(O)c(C(=O)O)c2)ccc1O`
0.7

---

# Tested on: Hepatotoxicity
# EXPERIMENT DESCRIPTION: FDA HLAED, liver enzyme composite activity
# CONDITION PARAMETERS: human
Consider the following compounds and their measured Composite Activity - Active readings.
API note: the answer field is a bare number with no unit suffix.

Here are 3 compounds together with their reported answers.
CCOC(=O)[C@H](CCc1ccccc1)N[C@@H](C)C(=O)N1[C@H](C(=O)O)C[C@@H]2CCC[C@@H]21 = 0
CC1Cc2ccccc2N1NC(=O)c1ccc(Cl)c(S(N)(=O)=O)c1 (centres undefined) [INDAPAMIDE] = 0
CC(C)NCC(O)COc1ccc(COCCOC(C)C)cc1 (centres undefined) = 1

Attention now turns to another entry.
Bench note: what Composite Activity - Active did CC(=O)O[C@H]1C[C@@H]2CC[C@@H]3[C@H](CC[C@@]4(C)[C@H]3C[C@H]([N+]3(C)CCCCC3)[C@@H]4OC(C)=O)[C@@]2(C)C[C@@H]1N1CCCCC1.[Br-] [VECURONIUM BROMIDE] show?
0

---

# Test system: Hepatotoxicity
# EXPERIMENT DESCRIPTION: FDA HLAED, lactate dehydrogenase (LDH) increase
# CONDITION PARAMETERS: human
ASSAY READOUT: LDH Increase - Number of Reports

Worked set:
C[C@]12CC[C@H]3[C@@H](CCC4=CC(=O)CC[C@@]43C)[C@@H]1CC[C@@H]2OC(=O)CCC1CCCC1 [TESTOSTERONE CYPIONATE] = < 4
O=C1CN=C(c2ccccc2)c2cc(Cl)ccc2N1CC1CC1 [PRAZEPAM] = < 4
O=c1n(CCCN2CCN(c3cccc(Cl)c3)CC2)nc2ccccn12 [TRAZODONE] = < 4
O=C(O)c1cc(-c2ccc(F)cc2F)ccc1O [DIFLUNISAL] = < 4
CO/N=C(\C(=O)N[C@@H]1C(=O)N2C(C(=O)O)=CCS[C@H]12)c1csc(N)n1 [CEFTIZOXIME] = < 4

// query LDH Increase - Number of Reports value for entry CCn1cc(C(=O)O)c(=O)c2cc(F)c(N3CCNCC3)cc21 [NORFLOXACIN]
>= 4

Please report the recorded LDH Increase - Number of Reports for Nc1nc(/C(=C/CC(=O)O)C(=O)N[C@@H]2C(=O)N3C(C(=O)O)=CCS[C@H]23)cs1 [CEFTIBUTEN] .
< 4

Name the reported LDH Increase - Number of Reports value associated with the compound CC(=O)CCCCn1c(=O)c2c(ncn2C)n(C)c1=O [PENTOXIFYLLINE]
>= 4

Ref: ChEMBL document CHEMBL1697781
